Where do the numbers come from? From ChEMBL document CHEMBL1201862.

Test system: PC-3
Test: NCI tumour cell line growth inhibition, 48 h
Calls of active or inactive are those of the source. Cut-off read from the data, not from the text of the source: active = GI50 up to about 1.1 µM and inactive = higher.
Measured attribute: GI50

These solved cases illustrate the format of a correct answer.
[
  {
    "Molecule": "Cc1cc(N(CCC#N)CCC#N)ccc1/C=N/NC(=O)c1ccccc1",
    "GI50": "21.8 µM (inactive)"
  },
  {
    "Molecule": "COC(=O)[C@H](C)NC(=O)[C@H](CSC)N1C(=O)N[C@@H](C(C)C)C1=O",
    "GI50": "> 100 µM (inactive)"
  },
  {
    "Molecule": "Cc1cccc(-n2c(C)nc3ccc(NC4OC(CO)C(O)C(O)C4O)cc3c2=O)c1 (configuration not stated)",
    "GI50": "> 100 µM (inactive)"
  },
  {
    "Molecule": "Cc1ccc(S(=O)(=O)N/N=c2/sc3ccccc3n2C)cc1",
    "GI50": "> 100 µM (inactive)"
  },
  {
    "Molecule": "Cc1cc(N=C2C=C(Br)C(=O)C(Br)=C2)cc(CN(CC(=O)O)CC(=O)O)c1O",
    "GI50": "> 100 µM (inactive)"
  }
]

Batch of 5 molecules: report GI50 for each.
1. O=c1[nH]nc(Cc2c[nH]c3ccccc23)o1
2. COc1cc(OC)c2nc3occc3c(OC)c2c1
3. O=C(CCc1ccc(O)cc1)NCCc1ccc(O)cc1
4. CCC(C)[C@H](NC(=O)[C@H](Cc1ccccc1)NC(=O)N(CC)c1ccccc1)C(=O)N[C@@H](CC(C)C)C(=O)OC (some centres not stated)
5. C=C(C)C[C@H](Sc1nc2ccccc2s1)[C@H](C)O

Reply:
1: > 100 µM (inactive); 2: > 100 µM (inactive); 3: > 100 µM (inactive); 4: 35.3 µM (inactive); 5: 22.6 µM (inactive)

* * *

Record form. Attribute: GI50. Fill in for each entry.
Tested on: DLD-1
Assay: NCI tumour cell line growth inhibition, 48 h
Active and inactive are the calls of the source. No stated cut-off is given here; in the data, active = GI50 up to about 1.1 µM and inactive = higher.

The examples below pair each entry with its known result.
[
  {
    "Compound": "CCOP(=O)(OCC)/C(C#N)=C/c1ccc[nH]1",
    "Assayed target": "DLD-1",
    "GI50": "> 100 µM (inactive)"
  },
  {
    "Compound": "CO[C@]12CCC(=O)N1C=Cc1c2[nH]c2ccccc12",
    "Assayed target": "DLD-1",
    "GI50": "> 100 µM (inactive)"
  },
  {
    "Compound": "N=C(N)NS(=O)(=O)c1ccc(Nc2c3ccccc3nc3c(C(=O)N4CCN(CCO)CC4)ccc(Cl)c23)cc1",
    "Assayed target": "DLD-1",
    "GI50": "> 100 µM (inactive)"
  },
  {
    "Compound": "CCCCCCCCC(=O)CCCCCCCCC(=O)O",
    "Assayed target": "DLD-1",
    "GI50": "20.1 µM (inactive)"
  },
  {
    "Compound": "NC(S)=Nc1cc(Cl)ccc1Cl",
    "Assayed target": "DLD-1",
    "GI50": "> 100 µM (inactive)"
  },
  {
    "Compound": "O=C1C2C3C=CC(C2C(=O)N1COP(=O)(O)O)C1C2C(=O)N(COP(=O)(O)O)C(=O)C2C31 (stereo unspecified)",
    "Assayed target": "DLD-1",
    "GI50": "> 49.2 µM (inactive)"
  },
  {
    "Compound": "CC1C(c2ccccc2)=CCON1c1ccccc1 (stereo unspecified)",
    "Assayed target": "DLD-1",
    "GI50": "> 100 µM (inactive)"
  },
  {
    "Compound": "C(=C\\c1cc(CCc2nc3ccccc3[nH]2)n[nH]1)/c1ccccc1",
    "Assayed target": "DLD-1",
    "GI50": "> 100 µM (inactive)"
  },
  {
    "Compound": "NC(=O)/C(=N\\NC(=O)C[n+]1ccccc1)C1NC(=O)NC1=O (stereo unspecified)",
    "Assayed target": "DLD-1",
    "GI50": "> 100 µM (inactive)"
  },
  {
    "Compound": "CCOC(=O)C(Cc1cn(S(=O)(=O)c2ccccc2)c2ccccc12)(NC(C)=O)C(=O)OCC",
    "Assayed target": "DLD-1",
    "GI50": "40.1 µM (inactive)"
  }
]

Next compound, please.
The value of GI50 measured for the compound C1=Cc2nc1c(-c1ccncc1)c1ccc([n-]1)c(-c1ccncc1)c1nc(c(-c3ccncc3)c3ccc([n-]3)c2-c2ccncc2)C=C1.[Zn+2] turned out to be > 100 µM (inactive)
